Consider the following substances and their measured Inhibition of binding to LR04 (B/Bo) readings.
Tested on: LRO4
measurementProtocol: Competitive phage ELISA, phage binding to LRO4 in presence of MDA-LDL
Design: species or system murine
conditionContext: Table 2B, Ph.D.7C7 library clones; in the presence of 50 μg/mL MDA-LDL
Method: For competitive phage ELISA, plates were coated with 5 μg/mL LRO4 and binding of 25 μL of phage solution at 2×10^10 pfu/mL was tested in the presence of 25 μL of MDA-LDL at 100 μg/mL. Bound phages were detected as described above and data expressed as values obtained in presence of competitor (B) divided by the values obtained in the absence of competitor (B0). […]

>  <substance>
NNWKMPL [Cb4]

>  <Inhibition of binding to LR04 (B/Bo)>
0.02

$$$$

// fetch LRO4 Inhibition of binding to LR04 (B/Bo) for NNSKMRL [Ca2]
0.12

# query: Inhibition of binding to LR04 (B/Bo) | item NNQNMPL [Cb9] | system: LRO4
0.02

// fetch LRO4 Inhibition of binding to LR04 (B/Bo) for NNYNMPL [Cb589]
0.03

For the record NNSXMPL [Ca6] , what value of Inhibition of binding to LR04 (B/Bo) is listed for LRO4?
0.04

Request: Inhibition of binding to LR04 (B/Bo), test system LRO4, entry NNWNMPL [Ca1, Ca7]
0.04

Form field: Inhibition of binding to LR04 (B/Bo) recorded for NNSHMPL [Ca9, Cb3, Ca8, Ca10] with LRO4 (enter value)
0.04

What reported Inhibition of binding to LR04 (B/Bo) corresponds to NNRNMPL [Ca59, Cb1] on LRO4?
0.06

Kindly state the measured Inhibition of binding to LR04 (B/Bo) obtained for KNSXQPL [Ca4] with LRO4.
0.13

Source of measurements: patent US20150056209A1
